System: AGS cells (KRAS G12D)
method: Cell viability assay (Cell Counting Kit-8, 3-day)
Assay type: cell-based, human
assay_context: Homo sapiens, 72 h, 72 hrs incubation
test_readout: IC50 (nM)
Write the answer as a number in nM, unit excluded.

Please review the following examples before continuing.
molecule	IC50 [nM]
CO[C@@H](C)c1ncc(N2CCN(C)CC2)cc1-c1c2c3cc(cc4c3n1CCO4)-c1csc(n1)C[C@H](NC(=O)[C@H]1C[C@@H]1c1cncnc1)C(=O)N1CCC[C@H](N1)C(=O)OCC(C)(C)C2 (atropisomer, axis not shown; (M))	5
CO[C@@H](C)c1ncc(N2CCN(C)CC2)cc1-c1c2c3cc(cc4c3n1CCC4)-c1csc(n1)C[C@H](NC(=O)[C@H]1C[C@@H]1c1cccnc1)C(=O)N1CCC[C@H](N1)C(=O)OCC(C)(C)C2 (atropisomer, axis not shown; (M))	5.2
CO[C@@H](C)c1ncc(N2CCN(C)CC2)cc1-c1c2c3cc(cc4c3n1CC(F)(F)C4)-c1csc(n1)C[C@H](NC(=O)[C@H]1C[C@@H]1C)C(=O)N1CCC[C@H](N1)C(=O)OCC(C)(C)C2 (atropisomer, axis not shown; (M))	54.5

Let us move to another entry and its IC50.
Notebook: CO[C@@H](C)c1ncc(N2CCN(C)CC2)cc1-c1c2c3cc(cc4c3n1CCCO4)-c1csc(n1)C[C@H](NC(=O)[C@H]1[C@H](C)[C@@H]1C)C(=O)N1CCC[C@H](N1)C(=O)OCC(C)(C)C2 (atropisomer, axis not shown; (M)) , IC50 read as 8.2
